Assay: in vivo
Conditions: male, C57 black, mouse, ip
measured attribute: TD50 at 60 min

Ask: Using known records, supply TD50 at 60 min for C[C@H](C(=O)NCc1ccccc1)N1C(=O)CCC1=O
Reply: > 150 mg/kg

====

Test: rotarod test (motor coordination)
Details: male, Swiss albino (CD-1), mouse, in vivo, ip
measured attribute: TD50 at 30 min (mg/kg)
Answer in mg/kg, number only, no unit symbol.

Ask: Using known records, supply TD50 at 30 min for C[C@H](C(=O)NCc1ccccc1F)N1C(=O)CCC1=O
Reply: 299
